Source: patent US20260242391A1

Assay: in vitro
Conditions: human
quantityKind: IC50 (µM)
Write the number in µM without appending the unit.

Before answering, review these 3 worked examples.
* C[C@H]1[C@@H](OC[C@]2(F)CC[C@@H](C(=O)O)CC2)O[C@@H]2O[C@@]3(C)CC[C@H]4[C@H](C)CC[C@@H]1[C@@]24OO3 | 15.3
* C[C@H]1[C@@H](OCc2ccc(C(=O)N[C@H]3CC[C@@H](C(=O)O)C3)cc2)O[C@@H]2O[C@@]3(C)CC[C@H]4[C@H](C)CC[C@@H]1[C@@]24OO3 | 6.8
* C[C@H]1[C@@H](Oc2ccc(OC3(C(=O)O)CC3)cc2)O[C@@H]2O[C@@]3(C)CC[C@H]4[C@H](C)CC[C@@H]1[C@@]24OO3 | 4.28

In: Return reported IC50; argument: C[C@H]1[C@@H](Oc2ccc(C(=O)N[C@H]3CCC[C@H]3C(=O)O)cc2)O[C@@H]2O[C@@]3(C)CC[C@H]4[C@H](C)CC[C@@H]1[C@@]24OO3
Out: 2.4

In: Try the compound C[C@@H]1CC[C@H]2[C@@H](C)[C@](OCc3ccc(C(=O)O)cc3Cl)(C(F)(F)F)O[C@@H]3O[C@@]4(C)CC[C@@H]1[C@]32OO4
Out: 0.03

In: Try the compound C[C@H]1[C@@H](Oc2ccc(C3CC3C(=O)O)cc2)O[C@@H]2O[C@@]3(C)CC[C@H]4[C@H](C)CC[C@@H]1[C@@]24OO3 (stereo partly drawn)
Out: 3.5

In: Try the compound C[C@H]1[C@@H](Oc2ccc(C(=O)NC3(C(=O)O)COC3)cc2Cl)O[C@@H]2O[C@@]3(C)CC[C@H]4[C@H](C)CC[C@@H]1[C@@]24OO3
Out: 17.2

In: Try the compound C[C@H]1[C@@H](OC2CCc3cc(C(=O)O)ccc32)O[C@@H]2O[C@@]3(C)CC[C@H]4[C@H](C)CC[C@@H]1[C@@]24OO3 (stereo partly drawn)
Out: 12

In: Try the compound C[C@H]1[C@@H](Oc2ccc([C@H](C)C(=O)O)cc2F)O[C@@H]2O[C@@]3(C)CC[C@H]4[C@H](C)CC[C@@H]1[C@@]24OO3
Out: 4.82

In: Try the compound C[C@H]1[C@@H](Oc2ccc(C(=O)O)cc2Cl)O[C@@H]2O[C@@]3(C)CC[C@H]4[C@H](C)CC[C@@H]1[C@@]24OO3
Out: 15

* * *

Consider the following IC50 values measured on HL-60.
Write the number in µM without appending the unit.

Before answering, review these 2 worked examples.
- C[C@H]1[C@@H](OC[C@H]2CC[C@@H](C(=O)N[C@H]3CC[C@@H](C(=O)O)C3)CC2)O[C@@H]2O[C@@]3(C)CC[C@H]4[C@H](C)CC[C@@H]1[C@@]24OO3 [Compound 267]: 20
- CC(C)[C@H](NC(=O)Cc1ccc(O[C@H]2O[C@@H]3O[C@@]4(C)CC[C@H]5[C@H](C)CC[C@@H]([C@H]2C)[C@@]35OO4)cc1)C(=O)O [Compound 302]: 20

Let us examine a further case.
In: Return reported IC50; argument: C[C@H]1[C@H](OC2CCc3cc(C(=O)O)ccc32)O[C@@H]2O[C@@]3(C)CC[C@H]4[C@H](C)CC[C@@H]1[C@@]24OO3 (stereo partly drawn) [Compound 225]
Out: 20
